# assay.system: ADP P2Y12 receptor (Homo sapiens, UniProt Q9H244)
# Construct: expressed in transfected cells
# Sequence (Q9H244 whole entry): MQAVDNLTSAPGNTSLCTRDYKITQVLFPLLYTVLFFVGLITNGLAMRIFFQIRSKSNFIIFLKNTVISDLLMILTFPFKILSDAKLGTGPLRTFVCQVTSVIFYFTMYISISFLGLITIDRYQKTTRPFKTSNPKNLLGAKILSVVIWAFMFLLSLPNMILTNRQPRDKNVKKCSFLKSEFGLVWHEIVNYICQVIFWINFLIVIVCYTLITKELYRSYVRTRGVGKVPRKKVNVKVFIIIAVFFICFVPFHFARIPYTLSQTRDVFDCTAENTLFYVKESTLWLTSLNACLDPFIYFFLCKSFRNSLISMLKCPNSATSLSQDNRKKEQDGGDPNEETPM
# assay.procedure: FLIPR calcium assay transducing Gi-coupled signaling to the Gq pathway (inhibition of ADP-induced calcium mobilization)
# Type: cell-based
# conditions: HEK 293 cells co-transfected with P2Y12 and Gqi5, ADP at EC60-70 dose
# Description: A FLIPR Calcium Assay Transducing Gi-Coupled Signaling to the Gq Pathway The ADP P2Y12 subtype is a Gi coupled GPCR, which mediates inhibition of adenylate cyclase leading to decreased cAMP while Gq proteins primarily activate phospholipase C, which stimulates inositol-1,4,5-triphosphate (IP3) formation and a subsequent increase in intracellular Ca^2+ concentration, which can be easily measured by FLIPR. […]
Exercise: for every item that follows, state its recorded IC50.
Unit µM implied. Number only.

State its IC50: CCCSc1nc(N[C@@H]2C[C@H]2c2ccccc2)c2nnn([C@@H]3C[C@H](c4nnn[nH]4)[C@@H](O)[C@H]3O)c2n1 (mixture of isomers) [Cpd 1]
0.037

State its IC50: CCCSc1nc(N[C@@H]2C[C@H]2c2ccccc2)c2nnn([C@@H]3C[C@H](Cn4ncnn4)[C@@H](O)[C@H]3O)c2n1 (mixture of isomers) [Cpd 3]
0.595

State its IC50: CCCSc1nc(NC[C@@H]2CCCO2)c2nnn([C@@H]3C[C@H](c4nnn[nH]4)[C@@H](O)[C@H]3O)c2n1 [Cpd 9]
2.02

State its IC50: CCCCNc1nc(SCCC)nc2c1nnn2[C@@H]1C[C@H](c2nnc[nH]2)[C@@H](O)[C@H]1O [Cpd 20]
0.765

State its IC50: CCCSc1nc(N[C@@H]2C[C@H]2c2ccccc2)c2nnn([C@@H]3C[C@H](c4nnn[nH]4)[C@@H](O)[C@H]3O)c2n1 [Cpd 22]
0.024

State its IC50: CCCCNc1nc(SCCC)nc2c1nnn2[C@@H]1C[C@H](c2nnc(C)[nH]2)[C@@H](O)[C@H]1O [Cpd 13]
2.17

State its IC50: CCCSc1nc(N[C@H]2C[C@@H]2c2ccccc2)c2nnn([C@@H]3C[C@H](c4nnn[nH]4)[C@@H](O)[C@H]3O)c2n1 [Cpd 23]
0.264

State its IC50: CCCSc1nc(N[C@@H]2C[C@H]2c2ccccc2)c2nnn([C@@H]3C[C@H](Cn4nccn4)[C@@H](O)[C@H]3O)c2n1 (mixture of isomers) [Cpd 6]
0.98

State its IC50: CCCSc1nc(N[C@@H]2C[C@H]2c2ccccc2)c2nnn([C@@H]3C[C@H](Cn4ccnn4)[C@@H](O)[C@H]3O)c2n1 (mixture of isomers) [Cpd 7]
0.507

State its IC50: CCCSc1nc(NCCc2cccs2)c2nnn([C@@H]3C[C@H](c4nnc(C)[nH]4)[C@@H](O)[C@H]3O)c2n1 [Cpd 15]
10.4

State its IC50: CCCSc1nc(NCCc2ccccc2)c2nnn([C@@H]3C[C@H](c4nnn[nH]4)[C@@H](O)[C@H]3O)c2n1 [Cpd 12]
0.416
